Biological target: KDM4A (Homo sapiens)
Construct: encoding human KDM4A residues 1–350 with a GST-6xHis tag at the N-terminal; GST-6xHis (followed by TEV cleavage site) (N, cleaved yes)
Sequence (O75164 1-350): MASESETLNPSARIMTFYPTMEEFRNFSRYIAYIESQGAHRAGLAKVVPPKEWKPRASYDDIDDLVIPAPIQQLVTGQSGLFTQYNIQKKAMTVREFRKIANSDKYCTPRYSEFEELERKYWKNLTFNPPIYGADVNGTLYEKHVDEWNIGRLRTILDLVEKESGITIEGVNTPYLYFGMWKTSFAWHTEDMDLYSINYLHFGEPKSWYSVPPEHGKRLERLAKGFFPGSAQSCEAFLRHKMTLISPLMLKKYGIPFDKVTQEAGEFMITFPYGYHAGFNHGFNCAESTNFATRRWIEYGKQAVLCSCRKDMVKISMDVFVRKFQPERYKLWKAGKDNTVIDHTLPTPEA
Experiment: Bio-layer interferometry (BLI) binding to biotinylated KDM4A
Details: BLI, 1:1 Langmuir global fit, 25 °C, 5% DMSO
// returns no (0) unless Kd is strictly below 20 µM, in which case yes (1)

Query: Dear colleague, could you confirm whether Kd of O=C(O)c1ccnc(C(=O)NCc2cnco2)c1 [Compound 6b] falls below 20 µM? Thanks.
Reply: yes (1)

Query: Would you kindly verify if Kd of CCCNC(=O)c1cc(C(=O)O)ccn1 [Compound 6c, 2-(Propylcarbamoyl)isonicotinic acid] is strictly less than 20 µM?
Reply: yes (1)

Query: For this compound, is Kd lower than 20 µM? O=C(O)c1ccnc(C(=O)NCc2ccccc2)c1 [Compound 6a, 2-(benzylcarbamoyl)isonicotinic acid]
Reply: no (0)

Query: Is the reported Kd for CNC(=O)c1cc(C(=O)O)ccn1 [Compound 1, 2-(methylcarbamoyl)isonicotinic acid] strictly below 20 µM?
Reply: yes (1)

Query: Lab note: Kd threshold 20 µM. Does this compound come in strictly under it? COC(=O)c1ccnc(C(=O)NCc2nc3ccccc3n2C)c1 [Compound 5d]
Reply: no (0)

Source: paper PMC10740270
